B1: HDV Ribozyme (parent)
chain: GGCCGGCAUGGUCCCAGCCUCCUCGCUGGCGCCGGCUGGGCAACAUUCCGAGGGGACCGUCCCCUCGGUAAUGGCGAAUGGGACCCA

# Variants of: B1
# Method Description: self-cleavage, relative activity (ratio to wild type); higher = more cleavage; co-transcriptional
Experimental Readout: self-cleavage
Returns: the value as a bare number; no unit string appended.

Residue Codes	Experimental Readout	Test Result
GGCCGGCAUGGUCCCAGCCUCCUCGCUGGCGCCGGAUAGGCAACAUUCCGAGGGGACCGUCCCCUCGGUAAUGGCGAAUGGGACCCA [C36A G38A]	self-cleavage	0.0845
GGCCGGCAUGGUCACAGCCUCCUCGCUGGCGCCGGCUGGGCAACAUUCCGAGGGGACCGUCCCCUCGGUAAUAGCGAAUGGGACCCA [C14A G73A]	self-cleavage	0.383
GGCCGGCAUGGUCCCAGCUUCCUCGCUGGCGCCGGCUGGGCAACAUUCCGAGGGGACCGUCCCCUCGGUAAUGGCGAAUGGGUCCCA [C19U A83U]	self-cleavage	0.148
GGCCGGCAUGGUCCCAGCCUCCUCCCUGGCGCCGGCUGGACAACAUUCCGAGGGGACCGUCCCCUCGGUAAUGGCGAAUGGGACCCA [G25C G40A]	self-cleavage	0.0386
GGCCGGCAUGGUCCCAGCCUCCUCGCUGGCGCCGGCUGGGCAACAUUCCGAGGGGACCGUCCCCUCGGCAAUGGCGAAUGGGACCGA [U69C C86G]	self-cleavage	1.05

Reported self-cleavage for GGCCGGCAUGGUCCCAGCCUCCUUGCUGGCGCCGGCUGGGCAACAUUCCGAGGGGACCGUCCCCUCGGCAAUGGCGAAUGGGACCCA [C24U U69C] : what is it?
0.831

Reported self-cleavage for GGCCGGCAUGGUCCCAGCCACCUCGCUGGCGCCGGCUGGGCAACAUUCCGAGGGGACCGUCCCCUCGGUAAUGGCGAAUGGGAUCCA [U20A C84U] : what is it?
0.0449

Reported self-cleavage for GGCCGGCAUGGUCCCAUCCUCCUCGCUGGCGCCGUCUGGGCAACAUUCCGAGGGGACCGUCCCCUCGGUAAUGGCGAAUGGGACCCA [G17U G35U] : what is it?
0.198

Reported self-cleavage for GGCCGGCAUGGUCACAGCCUCCUCGCUGGCGCCGCCUGGGCAACAUUCCGAGGGGACCGUCCCCUCGGUAAUGGCGAAUGGGACCCA [C14A G35C] : what is it?
0.0536

Reported self-cleavage for GGCCGGCAUGGUCCCAGCCUCCUCGCUGGCGCCGGCUGGGCAACAUUCCGAGGGGACCGUCCCCUCGGCAAUGGCGAAUGCGACCCA [U69C G81C] : what is it?
0.231

Reported self-cleavage for GCCCGGCAUGGUCCCAGCCUCCUCGCUGGCGCCGGCUGGGCAACAUUCCGAGGGGACCGUCCCCUCGGUAAUGGCGAACGGGACCCA [G2C U79C] : what is it?
0.101

Reported self-cleavage for GGCCGGCAUGGUCCCAGCCUCCUCGCUGGCGCCGGCUGGGCAACAUUACGAGGGGACCGUCCCCUCGGUAAUGGCGAAAGGGACCCA [C48A U79A] : what is it?
0.974

Reported self-cleavage for GGCCGGCAUUGUCCCAGCCUCCUCGCUGGCGCCGGCUCGGCAACAUUCCGAGGGGACCGUCCCCUCGGUAAUGGCGAAUGGGACCCA [G10U G38C] : what is it?
0.058

Reported self-cleavage for GGCCGGCAUGGUCCCAGCCUCCUCGCUGGCGCCGGCUGGGCAACAUUACGAGGGGACCGUCCCCUCGGUAAUUGCGAAUGGGACCCA [C48A G73U] : what is it?
0.422

Reported self-cleavage for GGCCGGCAUGGUCGCAGCCUCCUCGCUGGCGCCGGCUGGGCAACAUUCCGAGGGGACCGUCCGCUCGGUAAUGGCGAAUGGGACCCA [C14G C63G] : what is it?
0.573
